molecular target: Mitogen-activated protein kinase kinase kinase kinase 1 (Homo sapiens, UniProt Q92918); test: Inhibition of HPK1 in human Jurkat cells assessed as inhibition of anti-CD3/anti-CD28-induced SLP76 phosporylation at Ser376 residue incubated for 30 mins by ELISA
Sequence (Q92918 whole entry): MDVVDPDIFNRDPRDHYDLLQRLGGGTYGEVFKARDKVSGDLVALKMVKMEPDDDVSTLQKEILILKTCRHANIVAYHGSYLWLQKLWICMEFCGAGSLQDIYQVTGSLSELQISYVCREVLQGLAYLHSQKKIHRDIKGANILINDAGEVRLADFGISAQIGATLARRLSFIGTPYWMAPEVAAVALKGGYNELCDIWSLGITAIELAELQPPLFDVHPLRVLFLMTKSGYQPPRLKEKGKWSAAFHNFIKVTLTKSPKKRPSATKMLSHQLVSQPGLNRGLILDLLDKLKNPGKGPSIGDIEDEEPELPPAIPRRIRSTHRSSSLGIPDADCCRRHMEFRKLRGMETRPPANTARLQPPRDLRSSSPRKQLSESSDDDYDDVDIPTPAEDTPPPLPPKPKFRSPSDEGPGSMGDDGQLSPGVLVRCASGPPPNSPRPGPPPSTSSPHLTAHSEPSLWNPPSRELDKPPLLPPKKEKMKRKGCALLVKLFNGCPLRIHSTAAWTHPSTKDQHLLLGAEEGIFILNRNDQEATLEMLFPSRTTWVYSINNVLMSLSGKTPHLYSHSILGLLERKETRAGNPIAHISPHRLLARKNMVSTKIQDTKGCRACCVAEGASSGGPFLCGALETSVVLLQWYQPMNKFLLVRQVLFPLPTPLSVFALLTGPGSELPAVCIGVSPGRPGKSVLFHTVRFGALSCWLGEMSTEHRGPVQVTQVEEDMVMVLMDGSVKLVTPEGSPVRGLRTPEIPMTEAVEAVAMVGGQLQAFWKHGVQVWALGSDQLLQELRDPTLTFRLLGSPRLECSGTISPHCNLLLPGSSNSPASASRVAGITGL
Record form. Attribute: IC50. Fill in for each entry.
One number for each entry, in nM.

- molecule_smiles: "Cc1c(-c2cc3cc(NC(=O)OC4CCOCC4)ncc3c(N)c2F)cnc2c1NCCO2"
  result_number: 97
- molecule_smiles: "Cc1c(-c2cc3cc(NC(=O)O[C@H]4COC[C@@H]4C)ncc3c(N)c2F)cnc2c1NCCO2"
  result_number: 44

get_value(item= Cc1c(N)cncc1-c1cc2cc(Nc3cc4n(n3)CC(=O)N(C)CC4)ncc2c(N)c1F , readout=IC50) returns 110

---

experiment: Half life in C57BL/6 mouse at 25 mg/kg, po or 1 mg/kg, iv measured for 24 hrs by LC-MS/MS analysis; assay type: ADME, organism-based; conditions: in vivo
assay_endpoint: half-life

- molecule_smiles: "Cc1c(N)cncc1-c1cc2cc(Nc3cc4n(n3)CC(=O)N(C)CC4)ncc2c(N)c1F"
  result: "15.6 min"
- molecule_smiles: "Cc1c(N)cncc1-c1cc2cc(NC(=O)OC3CCOCC3)ncc2c(N)c1F"
  result: "78 min"
- molecule_smiles: "Cc1c(-c2cc3cc(NC(=O)O[C@H]4COC[C@@H]4C)ncc3c(N)c2F)cnc2c1NCCO2"
  result: "102 min"

get_value(item= Cc1c(-c2cc3cc(NC(=O)OC4CCOCC4)ncc3c(N)c2F)cnc2c1NCCO2 , readout=half-life) returns 66 min

---

Biological target: Mitogen-activated protein kinase kinase kinase kinase 3 (Homo sapiens)
Sequence (Q8IVH8 whole entry): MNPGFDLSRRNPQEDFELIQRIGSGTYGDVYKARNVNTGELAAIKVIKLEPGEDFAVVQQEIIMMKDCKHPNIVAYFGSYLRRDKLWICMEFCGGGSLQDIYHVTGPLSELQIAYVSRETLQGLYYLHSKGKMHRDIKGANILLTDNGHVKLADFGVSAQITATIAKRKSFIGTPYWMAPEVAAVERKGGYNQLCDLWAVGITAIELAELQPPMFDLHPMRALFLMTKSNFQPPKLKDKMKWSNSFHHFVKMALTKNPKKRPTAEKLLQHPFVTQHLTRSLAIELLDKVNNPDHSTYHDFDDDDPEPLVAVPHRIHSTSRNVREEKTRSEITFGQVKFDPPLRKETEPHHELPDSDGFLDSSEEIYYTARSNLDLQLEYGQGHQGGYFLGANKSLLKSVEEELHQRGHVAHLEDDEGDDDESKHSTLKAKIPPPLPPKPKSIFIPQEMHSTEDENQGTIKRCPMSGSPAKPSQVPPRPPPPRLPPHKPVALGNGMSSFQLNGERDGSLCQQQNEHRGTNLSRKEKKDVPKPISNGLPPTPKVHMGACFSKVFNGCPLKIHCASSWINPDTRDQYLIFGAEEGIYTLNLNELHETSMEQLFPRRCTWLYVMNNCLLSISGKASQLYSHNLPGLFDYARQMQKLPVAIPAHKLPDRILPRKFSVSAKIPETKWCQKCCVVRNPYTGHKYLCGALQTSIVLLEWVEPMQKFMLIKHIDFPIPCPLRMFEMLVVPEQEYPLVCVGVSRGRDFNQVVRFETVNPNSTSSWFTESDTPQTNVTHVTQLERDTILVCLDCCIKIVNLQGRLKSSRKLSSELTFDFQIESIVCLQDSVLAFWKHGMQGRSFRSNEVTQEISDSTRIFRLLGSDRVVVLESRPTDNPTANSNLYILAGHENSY
Experiment: Inhibition of GLK (unknown origin)
assay_endpoint: pIC50
One number for each entry, as −log10 of the molar value.

get_value(item= Cc1c(-c2cc3cc(NC(=O)O[C@H]4COC[C@@H]4C)ncc3c(N)c2F)cnc2c1NCCO2 , readout=pIC50) returns 9.14
